EXPERIMENTAL TARGET: ΔF508-CFTR (Homo sapiens, UniProt P13569, DEL508-508)
Construct: expressed in transfected cells
Sequence (P13569 with tags, fused parts or gaps DEL508-508): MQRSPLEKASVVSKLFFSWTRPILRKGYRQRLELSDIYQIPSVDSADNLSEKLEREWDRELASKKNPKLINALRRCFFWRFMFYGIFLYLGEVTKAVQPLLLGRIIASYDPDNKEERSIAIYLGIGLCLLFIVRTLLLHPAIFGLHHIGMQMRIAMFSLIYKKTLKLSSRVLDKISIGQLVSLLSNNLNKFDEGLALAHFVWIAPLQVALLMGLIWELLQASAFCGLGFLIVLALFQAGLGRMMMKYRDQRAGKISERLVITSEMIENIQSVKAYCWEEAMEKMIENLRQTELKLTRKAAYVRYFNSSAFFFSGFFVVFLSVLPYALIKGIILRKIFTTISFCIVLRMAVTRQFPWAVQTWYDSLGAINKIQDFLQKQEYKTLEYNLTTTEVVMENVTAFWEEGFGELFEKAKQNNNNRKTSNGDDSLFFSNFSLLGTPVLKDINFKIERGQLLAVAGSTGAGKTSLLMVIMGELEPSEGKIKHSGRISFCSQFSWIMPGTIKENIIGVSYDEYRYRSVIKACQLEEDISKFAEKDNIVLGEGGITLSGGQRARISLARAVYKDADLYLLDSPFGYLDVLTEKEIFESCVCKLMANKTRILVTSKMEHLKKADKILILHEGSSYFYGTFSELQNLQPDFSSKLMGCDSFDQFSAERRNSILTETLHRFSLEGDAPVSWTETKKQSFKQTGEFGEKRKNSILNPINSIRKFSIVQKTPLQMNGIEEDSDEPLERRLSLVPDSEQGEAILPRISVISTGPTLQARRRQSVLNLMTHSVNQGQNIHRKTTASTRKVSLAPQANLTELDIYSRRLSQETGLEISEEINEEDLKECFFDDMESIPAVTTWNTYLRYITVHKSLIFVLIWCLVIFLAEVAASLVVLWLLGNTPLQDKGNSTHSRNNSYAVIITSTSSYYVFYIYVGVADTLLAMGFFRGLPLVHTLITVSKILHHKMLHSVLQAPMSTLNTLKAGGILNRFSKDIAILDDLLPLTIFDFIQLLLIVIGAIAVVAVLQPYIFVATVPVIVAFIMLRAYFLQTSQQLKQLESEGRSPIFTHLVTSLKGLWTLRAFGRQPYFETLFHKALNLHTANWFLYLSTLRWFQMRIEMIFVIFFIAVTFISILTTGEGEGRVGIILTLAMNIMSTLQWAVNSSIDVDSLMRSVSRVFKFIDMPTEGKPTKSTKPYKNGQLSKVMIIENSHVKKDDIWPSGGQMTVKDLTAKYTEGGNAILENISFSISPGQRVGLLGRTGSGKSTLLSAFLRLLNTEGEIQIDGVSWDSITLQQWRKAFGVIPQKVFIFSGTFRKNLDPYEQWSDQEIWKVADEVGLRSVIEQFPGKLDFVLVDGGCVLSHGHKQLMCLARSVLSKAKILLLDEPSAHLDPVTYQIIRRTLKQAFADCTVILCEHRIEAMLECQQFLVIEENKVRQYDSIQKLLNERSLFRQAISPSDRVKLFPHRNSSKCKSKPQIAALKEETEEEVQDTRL
ASSAY EXPLANATION: Membrane potential optical assay, identification of correction compounds (single-addition HTS format)
Assay type: cell-based
RECORDED CONDITIONS: PercentActivity; ΔF508-CFTR in NIH3T3 mouse fibroblasts; 16-24 hrs with compound; 10 μM forskolin and 20 μM genistein; read-out: BinnedMaxEfficacy
Each entry below lists one item and its recorded Emax value.

Example results:
COMPOUND | EXPERIMENTAL TARGET | Emax
CCc1cccc(NC(=O)C2(c3ccccc3)CC2)n1 | ΔF508-CFTR (Homo sapiens, UniProt P13569, DEL508-508) | 25 to 100%
COc1ccccc1C(=O)c1ccc(NC(=O)C2(c3ccccc3OC)CC2)nc1 | ΔF508-CFTR (Homo sapiens, UniProt P13569, DEL508-508) | 25 to 100%
Cc1ccc(NC(=O)C2(c3ccc4c(c3)OC(F)(F)O4)CC2)nc1 | ΔF508-CFTR (Homo sapiens, UniProt P13569, DEL508-508) | > 100%
COc1ccccc1Cc1ccc(NC(=O)C2(c3ccc(OC(F)(F)F)cc3)CC2)nc1 | ΔF508-CFTR (Homo sapiens, UniProt P13569, DEL508-508) | > 100%
COc1ccc(Cc2ccc(NC(=O)C3(c4ccc5c(c4)OCO5)CC3)nc2)cc1 | ΔF508-CFTR (Homo sapiens, UniProt P13569, DEL508-508) | > 100%
CCN(CC)C(c1ccc(NC(=O)C2(c3ccc4c(c3)OCO4)CC2)nc1)c1ccccc1OC (centres unmarked) | ΔF508-CFTR (Homo sapiens, UniProt P13569, DEL508-508) | > 100%
CC(C)Cc1ccc(NC(=O)C2(c3ccc4c(c3)OCO4)CC2)nc1 | ΔF508-CFTR (Homo sapiens, UniProt P13569, DEL508-508) | > 100%

Now, please, on to the next compound.
Enquiry: Give a short answer stating reported Emax for COc1ccccc1C(c1ccc(NC(=O)C2(c3ccc4c(c3)OCO4)CC2)nc1)N1CCN(CCO)CC1 (centres unmarked) .
Return: 25 to 100%

Each recorded value in this set is attributed to patent US8889875B2.
